Here, each record is paired with measured Inhibition data.
System: Cryptococcus neoformans
Conditions: Concentration 20 uM; ASSAY_TEST Inhibition of Fungal Growth; detection method Resazurin; Absorption (OD600-OD570); plate type 384well; NBS; CORNING #3640
Description: Antifungal activity against Cryptococcus neoformans H99 ATCC 208821 (CO-ADD:FG_002); MIC in YNB media using NBS plates, by Resazurin OD(600-570)
Measured potencies and affinities stand elsewhere.
Report as a plain number; the unit % is understood.

# record.smiles, value.measured
data = [
    ("CCCSc1nc2c(c(=O)n(C)c(=O)n2C)n1C", -7.02),
    ("COc1cc(/N=N/c2cccc(S(N)(=O)=O)c2)c2ccccc2c1N", -17.61),
]

Exam item: Request the reported Inhibition associated with "Cn1cnc2ncnn2c1=S"
Marked response: -8.45

Exam item: Quick one: "O=C(NC(=S)Nc1ccccn1)c1ccccc1"
Marked response: -15.94

Exam item: Quick one: "O=C(O)c1ccccc1C(=O)Nc1cccc([N+](=O)[O-])c1"
Marked response: -3.03

Exam item: Quick one: "O=C(NC1(N2CCOCC2)CC1)c1ccc(Cl)cc1"
Marked response: -0.42

Exam item: Quick one: "CCOC(=O)c1cc[nH]c1CC(=O)NC"
Marked response: -10.3
